system: U937 human histiocytic leukemia cell line; test: Assay 2: inhibition of TSQ induced necroptosis, 96 well plate format; conditions: U-937, Table 2, assay 2, U937, 5000 cells per well, hTNF-Fc 100 ng/ml, Compound A 500 nM, Q-VD-OPh 10 μM, 48 hours, read-out: Inhibition of TSQ-induced necroptosis (cell based assay) IC50 (U937, TSQ nM)
Field: class. Source value: IC50. Ranges: A: < 8 nM; B: ≥ 8 nM and < 40 nM; C: ≥ 40 nM

> print(dat)
                                   molecule  classification
1  CNC(=O)c1cc(Nc2nccc(N(C)c3ccc(NC(=O)Nc4cccc(OC(F)(F)F)c4)cc3)n2)ccc1C [Compound 39]               A
2  Cc1ccc(Nc2nccc(N(C)c3ccc(NC(=O)Nc4cc(F)cc(C(F)(F)F)c4)cc3)n2)cc1C(=O)OCCO [Compound 36]               B
3  CN(c1ccc(NC(=O)Nc2ccc(OC(F)(F)F)cc2)cc1)c1ccnc(Nc2cccc(N3CC4(CCOCC4)CC3=O)c2)n1 [Compound 40]               A
4  Cc1ccc(Nc2nccc(N(C)c3ccc(NC(=O)Nc4cc(F)cc(C(F)(F)F)c4)cc3)n2)cc1N1CCNC1=O [Compound 34]               B
5  Cc1ccc(Nc2nccc(N(C)c3ccc(NC(=O)Nc4ccc(OC(F)(F)F)cc4)cc3)n2)cc1N1CC2(CCOCC2)CC1=O [Compound 41]               B

Problem: Category of CNC(=O)c1cc(Nc2nccc(N(C)c3ccc(NC(=O)Nc4cc(F)cc(C(F)(F)F)c4)cc3)n2)ccc1CN1CCN(C)CC1 [Compound 35] , please.
Result: C

Problem: Category of CNC(=O)c1cc(Nc2nccc(N(C)c3ccc(NC(=O)Nc4cccc(CC(F)(F)F)c4)cc3)n2)ccc1C [Compound 38] , please.
Result: A

Problem: Category of CNC(=O)c1cc(Nc2nccc(N(C)c3ccc(NC(=O)Nc4cc(C(F)(F)F)cc(C(F)(F)F)c4)cc3)n2)ccc1C [Compound 37] , please.
Result: C

Problem: Category of CNC(=O)c1cc(Nc2nccc(N(C)c3ccc(NC(=O)Nc4cc(C#N)cc(C(F)(F)F)c4)cc3)n2)ccc1C [Compound 42] , please.
Result: C

###

system: U937 human histiocytic leukemia cell line; assay: Off-target effect (cell based assay), reported with assay 1; conditions: U-937, Table 1, assay 1, read-out: Off-target effect (cell based assay) IC50
EXPERIMENTAL READOUT: IC50 (µM)
Expressed in µM, but write only the number.

> print(dat)
                                   molecule  experimental.readout  obs.value
1  CN(c1ccc(NC(=O)Nc2ccc(OC(F)(F)F)cc2)cc1)c1nc(Nc2cccc(S(N)(=O)=O)c2)ncc1F [Compound 5]                  IC50       3.11
2  CNC(=O)c1cc(Nc2nccc(N(C)c3ccc(NC(=O)Nc4cccc(C#N)c4)cc3)n2)ccc1C [Compound 33]                  IC50       4.13
3  CNC(=O)c1cc(Nc2nccc(N(C)c3ccc(NC(=O)Nc4cc(F)cc(C(F)(F)F)c4)cc3)n2)ccc1C [Compound 16]                  IC50       1.23
4  Cc1ccc(Nc2nccc(N(C)c3ccc(NC(=O)Nc4cc(F)cc(C(F)(F)F)c4)cc3)n2)cc1N1CCNC1=O [Compound 34]                  IC50       2.42
5  CNC(=O)c1cc(Nc2nccc(N(C)c3ccc(NC(=O)Nc4cc(F)cc(C(F)(F)F)c4)cc3)n2)ccc1N1CCOCC1 [Compound 27]                  IC50        2.7
6  CC(=O)Nc1cc(Nc2nccc(N(C)c3ccc(NC(=O)Nc4ccc(OC(F)(F)F)cc4)cc3)n2)ccc1C [Compound 28]                  IC50       0.98
7  CN(c1ccc(NC(=O)Nc2ccc(OC(F)(F)F)cc2)cc1)c1ccnc(Nc2cccc(-c3nnn(C)n3)c2)n1 [Compound 11]                  IC50       1.35
8  CNC(=O)c1cc(Nc2nccc(N(C)c3ccc(NC(=O)Nc4cc(F)cc(C(F)(F)F)c4)cc3)n2)ccc1OC [Compound 30]                  IC50       6.68

Next, consider the following molecule.
Problem: Suppose we examine the molecule CN(c1ccc(NC(=O)Nc2cc(F)cc(C(F)(F)F)c2)cc1)c1ccnc(Nc2cccc(S(N)(=O)=O)c2)n1 [Compound 10] ; what IC50 value has been reported?
Result: 0.506

Data provenance: patent US20180057465A1
